System: pain of inflammation in rats
test-details: effect on the pain of inflammation in rats (RANDALL and SELITTO)
Type: in vivo, rat
stated-conditions: sc, 1.5 h; male rats, oesophageal tube, 1% methylcellulose, after subcutaneous yeast; pain threshold 90 minutes after administration; read-out: ED^50 after 90 minutes (dosage which raised the pain threshold by 50%)
reported-endpoint: ED50

Sample records with ED50:
CCn1c2c(c(C)cc1=O)C(=O)CCC2 [Substance G] : 5.9 mg/kg
CC1CC2=C(CCCC2=O)NC1=O (stereo not drawn) [Substance B] : 39 mg/kg
Cc1cc2c(n(C)c1=O)CCCC2=O [Substance F] : 12.1 mg/kg

Input line: Request the reported ED50 associated with Cc1cc(=O)[nH]c2c1C(=O)CCC2 [Substance D]
Output line: 34 mg/kg

Input line: I'd like to know its ED50. The molecule in question is Cc1cc2c([nH]c1=O)CCCC2=O [Substance E]
Output line: 36 mg/kg

Input line: Name the reported ED50 value associated with the molecule Cn1c2c(ccc1=O)C(=O)CCC2 [Substance A]
Output line: 8.1 mg/kg

Input line: // ED50 lookup, key: CCN1C(=O)CCC2=C1CCCC2=O [Substance I]
Output line: 16 mg/kg

Input line: Requested field: ED50. Item: CN1C(=O)CCC2=C1CCCC2=O [Substance C]
Output line: 21 mg/kg

Input line: What value of measured ED50 is listed for CCCCn1c2c(c(C)cc1=O)C(=O)CCC2 [Substance H] ?
Output line: 19.1 mg/kg

----------
Test system: body temperature of normothermic rats
test-details: effect on body temperature of normothermic rats
Format: in vivo
stated-conditions: Rattus norvegicus, po, oesophageal tube, 1% methylcellulose, rectal temperature, read-out: ED^-1.5° C. (dosage which lowered the body temperature by 1.5° C.)
Method: 4. The effect on body temperature was investigated on normothermic rats weighing between 120 and 140 g. The test substances were administered by oesophageal tube as a trituration in 1% methylcellulose (1.0 ml/100 g of animal). From the lowering of rectal temperature observed after various dosages, the ED^-1.5° C. was calculated by linear regression analysis as the dosage which lowered the body temperature by 1.5° C.
A collection of compounds and their measured ED (-1.5 degC)
Report as a plain number; the unit mg/kg is understood.

Cc1cc2c([nH]c1=O)CCCC2=O : 34
Cc1cc2c(n(C)c1=O)CCCC2=O : 36
CC1CC2=C(CCCC2=O)NC1=O (stereo not drawn) : 35
Cc1cc(=O)[nH]c2c1C(=O)CCC2 : 25
Cn1c2c(ccc1=O)C(=O)CCC2 : 29
CCCCn1c2c(c(C)cc1=O)C(=O)CCC2 : 36
CCn1c2c(c(C)cc1=O)C(=O)CCC2 : 11
CN1C(=O)CCC2=C1CCCC2=O : 26

// moving on: another record for ED (-1.5 degC)
Input line: Look up ED (-1.5 degC): CCN1C(=O)CCC2=C1CCCC2=O
Output line: 22

----------
Parameter: ED100. Scope: all listed entries.
System: heat-induced pain in mice
test-details: effect on heat-induced pain in mice (CHEN and BECKMAN)
Assay type: in vivo
stated-conditions: Mus musculus, po; male mice, oesophageal tube, 1% methylcellulose; read-out: ED^100 (dosage which doubled the reaction time)
// note: answer is a bare numeric in mg/kg

# example entries with known answers
Cc1cc2c([nH]c1=O)CCCC2=O : 135
Cc1cc(=O)[nH]c2c1C(=O)CCC2 : 98
CC1CC2=C(CCCC2=O)NC1=O (stereo not drawn) : 155

Input line: Form: Entry = CCn1c2c(c(C)cc1=O)C(=O)CCC2 | System = heat-induced pain in mice | ED100 = ____
Output line: 59
